Each item that follows carries a reported inhibition at 1 µM.
Molecular target: UniProt O14757
Sequence (O14757 whole entry): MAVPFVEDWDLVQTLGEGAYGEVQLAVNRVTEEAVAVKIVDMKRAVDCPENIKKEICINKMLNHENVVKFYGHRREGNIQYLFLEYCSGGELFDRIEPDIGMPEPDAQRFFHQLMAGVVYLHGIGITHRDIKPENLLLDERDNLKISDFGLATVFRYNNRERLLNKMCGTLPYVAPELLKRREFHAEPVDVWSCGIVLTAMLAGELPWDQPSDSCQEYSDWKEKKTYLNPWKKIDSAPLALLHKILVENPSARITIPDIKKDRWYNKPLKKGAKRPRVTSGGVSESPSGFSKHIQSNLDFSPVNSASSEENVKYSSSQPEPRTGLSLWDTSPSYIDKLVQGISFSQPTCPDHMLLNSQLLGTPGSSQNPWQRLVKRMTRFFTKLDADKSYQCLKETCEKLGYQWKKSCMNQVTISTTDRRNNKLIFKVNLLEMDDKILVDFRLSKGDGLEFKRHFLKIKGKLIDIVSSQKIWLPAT
Assay: Kinase panel profiling at 1 µmol/L (MSA or IMAP), percentage inhibition
Format: biochemical
Settings: CHK1 kinase assay; 1 µmol/L single concentration; read-out: %-inhibition CHK1
property-name: inhibition at 1 µM (%)

smiles_string=COc1ccc(CN2C3CC2CN(c2ccc(-c4cc(OCC(C)(C)O)cn5ncc(C#N)c45)cn2)C3)cn1 subject_of_test="UniProt O14757" endpoint_value=29
smiles_string=CCc1nc(C(N)=O)c(Nc2ccc(N3CCC(N4CCN(C)CC4)CC3)c(OC)c2)nc1NC1CCOCC1 subject_of_test="UniProt O14757" endpoint_value=22
smiles_string=C[C@H](Nc1ncnc2nc[nH]c12)c1cc2cccc(Cl)c2c(=O)n1-c1ccccc1 subject_of_test="UniProt O14757" endpoint_value=5.69
smiles_string=COc1cc2ncnc(Nc3ccc(F)c(Cl)c3)c2cc1NC(=O)/C=C/CN1CCCCC1 subject_of_test="UniProt O14757" endpoint_value=10
